Where do the numbers come from? From BigSolDB 2.1.

Conditions: in n-butanol, 303.2 K
REPORTED METRIC: solubility (mole fraction)

So what's the measured solubility (mole fraction) for this one? O=c1c(-c2ccc(O)cc2)coc2cc(O[C@@H]3O[C@H](CO)[C@@H](O)[C@H](O)[C@H]3O)cc(O)c12
1.25e-05

====

Settings: in ethanol, 293.2 K
REPORTED METRIC: solubility (mole fraction)
Numbers only.

So what's the measured solubility (mole fraction) for this one? O=c1c(-c2ccc(O)cc2)coc2cc(O[C@@H]3O[C@H](CO)[C@@H](O)[C@H](O)[C@H]3O)cc(O)c12
2.85e-05

====

Details: in methanol, 323.2 K
REPORTED METRIC: solubility (mole fraction)
Give bare numbers.

So what's the measured solubility (mole fraction) for this one? O=c1c(-c2ccc(O)cc2)coc2cc(O[C@@H]3O[C@H](CO)[C@@H](O)[C@H](O)[C@H]3O)cc(O)c12
7.04e-05

====

Conditions: in THF, 303.2 K
REPORTED METRIC: solubility (mole fraction)
Answers are plain numbers.

So what's the measured solubility (mole fraction) for this one? O=c1c(-c2ccc(O)cc2)coc2cc(O[C@@H]3O[C@H](CO)[C@@H](O)[C@H](O)[C@H]3O)cc(O)c12
0.000123

====

Details: in isopropanol, 283.2 K
REPORTED METRIC: solubility (mole fraction)
Answers are plain numbers.

So what's the measured solubility (mole fraction) for this one? O=c1c(-c2ccc(O)cc2)coc2cc(O[C@@H]3O[C@H](CO)[C@@H](O)[C@H](O)[C@H]3O)cc(O)c12
7.95e-06

====

Details: in chloroform, 293.2 K
REPORTED METRIC: solubility (mole fraction)
Give bare numbers.

So what's the measured solubility (mole fraction) for this one? O=c1c(-c2ccc(O)cc2)coc2cc(O[C@@H]3O[C@H](CO)[C@@H](O)[C@H](O)[C@H]3O)cc(O)c12
3.37e-07

====

Settings: in chloroform, 303.2 K
REPORTED METRIC: solubility (mole fraction)
Answers are plain numbers.

So what's the measured solubility (mole fraction) for this one? O=c1c(-c2ccc(O)cc2)coc2cc(O[C@@H]3O[C@H](CO)[C@@H](O)[C@H](O)[C@H]3O)cc(O)c12
4.14e-07

====

Conditions: in isopropanol, 293.2 K
REPORTED METRIC: solubility (mole fraction)
One number for each entry.

So what's the measured solubility (mole fraction) for this one? O=c1c(-c2ccc(O)cc2)coc2cc(O[C@@H]3O[C@H](CO)[C@@H](O)[C@H](O)[C@H]3O)cc(O)c12
1.05e-05

====

Settings: in ethanol, 323.2 K
REPORTED METRIC: solubility (mole fraction)
Give bare numbers.

So what's the measured solubility (mole fraction) for this one? O=c1c(-c2ccc(O)cc2)coc2cc(O[C@@H]3O[C@H](CO)[C@@H](O)[C@H](O)[C@H]3O)cc(O)c12
4.38e-05

====

Details: in ethyl acetate, 293.2 K
REPORTED METRIC: solubility (mole fraction)
Answers are plain numbers.

So what's the measured solubility (mole fraction) for this one? O=c1c(-c2ccc(O)cc2)coc2cc(O[C@@H]3O[C@H](CO)[C@@H](O)[C@H](O)[C@H]3O)cc(O)c12
1.52e-06

====

Conditions: in THF, 313.2 K
REPORTED METRIC: solubility (mole fraction)
Numbers only.

So what's the measured solubility (mole fraction) for this one? O=c1c(-c2ccc(O)cc2)coc2cc(O[C@@H]3O[C@H](CO)[C@@H](O)[C@H](O)[C@H]3O)cc(O)c12
0.000149

====

Details: in methanol, 293.2 K
REPORTED METRIC: solubility (mole fraction)
Give bare numbers.

So what's the measured solubility (mole fraction) for this one? O=c1c(-c2ccc(O)cc2)coc2cc(O[C@@H]3O[C@H](CO)[C@@H](O)[C@H](O)[C@H]3O)cc(O)c12
5.54e-05

====

Conditions: in ethanol, 283.2 K
REPORTED METRIC: solubility (mole fraction)
Answers are plain numbers.

So what's the measured solubility (mole fraction) for this one? O=c1c(-c2ccc(O)cc2)coc2cc(O[C@@H]3O[C@H](CO)[C@@H](O)[C@H](O)[C@H]3O)cc(O)c12
2.63e-05

====

Details: in acetonitrile, 313.2 K
REPORTED METRIC: solubility (mole fraction)
Numbers only.

So what's the measured solubility (mole fraction) for this one? O=c1c(-c2ccc(O)cc2)coc2cc(O[C@@H]3O[C@H](CO)[C@@H](O)[C@H](O)[C@H]3O)cc(O)c12
2.62e-06

====

Conditions: in methanol, 303.2 K
REPORTED METRIC: solubility (mole fraction)
One number for each entry.

So what's the measured solubility (mole fraction) for this one? O=c1c(-c2ccc(O)cc2)coc2cc(O[C@@H]3O[C@H](CO)[C@@H](O)[C@H](O)[C@H]3O)cc(O)c12
5.91e-05

====

Settings: in ethyl acetate, 303.2 K
REPORTED METRIC: solubility (mole fraction)
Numbers only.

So what's the measured solubility (mole fraction) for this one? O=c1c(-c2ccc(O)cc2)coc2cc(O[C@@H]3O[C@H](CO)[C@@H](O)[C@H](O)[C@H]3O)cc(O)c12
1.99e-06

====

Settings: in cyclohexane, 313.2 K
REPORTED METRIC: solubility (mole fraction)

So what's the measured solubility (mole fraction) for this one? O=c1c(-c2ccc(O)cc2)coc2cc(O[C@@H]3O[C@H](CO)[C@@H](O)[C@H](O)[C@H]3O)cc(O)c12
9.11e-07

====

Conditions: in n-hexane, 283.2 K
REPORTED METRIC: solubility (mole fraction)
One number for each entry.

So what's the measured solubility (mole fraction) for this one? O=c1c(-c2ccc(O)cc2)coc2cc(O[C@@H]3O[C@H](CO)[C@@H](O)[C@H](O)[C@H]3O)cc(O)c12
3.64e-07

====

Conditions: in n-hexane, 303.2 K
REPORTED METRIC: solubility (mole fraction)
Answers are plain numbers.

So what's the measured solubility (mole fraction) for this one? O=c1c(-c2ccc(O)cc2)coc2cc(O[C@@H]3O[C@H](CO)[C@@H](O)[C@H](O)[C@H]3O)cc(O)c12
6.47e-07

====

Conditions: in n-butanol, 293.2 K
REPORTED METRIC: solubility (mole fraction)
One number for each entry.

So what's the measured solubility (mole fraction) for this one? O=c1c(-c2ccc(O)cc2)coc2cc(O[C@@H]3O[C@H](CO)[C@@H](O)[C@H](O)[C@H]3O)cc(O)c12
8.48e-06

====

Conditions: in acetonitrile, 293.2 K
REPORTED METRIC: solubility (mole fraction)

So what's the measured solubility (mole fraction) for this one? O=c1c(-c2ccc(O)cc2)coc2cc(O[C@@H]3O[C@H](CO)[C@@H](O)[C@H](O)[C@H]3O)cc(O)c12
1.61e-06

====

Details: in ethyl acetate, 323.2 K
REPORTED METRIC: solubility (mole fraction)
Answers are plain numbers.

So what's the measured solubility (mole fraction) for this one? O=c1c(-c2ccc(O)cc2)coc2cc(O[C@@H]3O[C@H](CO)[C@@H](O)[C@H](O)[C@H]3O)cc(O)c12
3.25e-06

====

Settings: in chloroform, 323.2 K
REPORTED METRIC: solubility (mole fraction)
One number for each entry.

So what's the measured solubility (mole fraction) for this one? O=c1c(-c2ccc(O)cc2)coc2cc(O[C@@H]3O[C@H](CO)[C@@H](O)[C@H](O)[C@H]3O)cc(O)c12
6.54e-07

====

Conditions: in ethyl acetate, 313.2 K
REPORTED METRIC: solubility (mole fraction)
Give bare numbers.

So what's the measured solubility (mole fraction) for this one? O=c1c(-c2ccc(O)cc2)coc2cc(O[C@@H]3O[C@H](CO)[C@@H](O)[C@H](O)[C@H]3O)cc(O)c12
2.55e-06

====

Conditions: in THF, 283.2 K
REPORTED METRIC: solubility (mole fraction)
One number for each entry.

So what's the measured solubility (mole fraction) for this one? O=c1c(-c2ccc(O)cc2)coc2cc(O[C@@H]3O[C@H](CO)[C@@H](O)[C@H](O)[C@H]3O)cc(O)c12
8.67e-05

====

Settings: in methanol, 313.2 K
REPORTED METRIC: solubility (mole fraction)
Answers are plain numbers.

So what's the measured solubility (mole fraction) for this one? O=c1c(-c2ccc(O)cc2)coc2cc(O[C@@H]3O[C@H](CO)[C@@H](O)[C@H](O)[C@H]3O)cc(O)c12
6.44e-05

====

Conditions: in cyclohexane, 323.2 K
REPORTED METRIC: solubility (mole fraction)

So what's the measured solubility (mole fraction) for this one? O=c1c(-c2ccc(O)cc2)coc2cc(O[C@@H]3O[C@H](CO)[C@@H](O)[C@H](O)[C@H]3O)cc(O)c12
1.25e-06

====

Details: in isopropanol, 303.2 K
REPORTED METRIC: solubility (mole fraction)
Numbers only.

So what's the measured solubility (mole fraction) for this one? O=c1c(-c2ccc(O)cc2)coc2cc(O[C@@H]3O[C@H](CO)[C@@H](O)[C@H](O)[C@H]3O)cc(O)c12
1.34e-05
